B1: HDV Ribozyme (parent)
chain: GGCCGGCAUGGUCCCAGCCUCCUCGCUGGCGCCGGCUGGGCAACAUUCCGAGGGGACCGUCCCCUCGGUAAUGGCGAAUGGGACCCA

- Variants of: B1
- ASSAY: self-cleavage, relative activity (ratio to wild type); higher = more cleavage; co-transcriptional
Class assignment keyed on self-cleavage, ranges lower range (below 0.2), middle range (0.2 to below 0.5), upper range (0.5 or more)

As a guide, the following entries are already answered.
Form field 'band' for GGCCGGCAUAGUCCCAGCCUCCUCGCUGGCGCCGGCUGGGCAACAUUCCUAGGGGACCGUCCCCUCGGUAAUGGCGAAUGGGACCCA [G10A G50U]
upper range

Class? Entry: GGCCCGCAUGGUCCCAGCCUCCUCCCUGGCGCCGGCUGGGCAACAUUCCGAGGGGACCGUCCCCUCGGUAAUGGCGAAUGGGACCCA [G5C G25C]
lower range

For the record GGCCGGCAUGGUCCCCGCCUCCUCGCUGGCGCCGGAUGGGCAACAUUCCGAGGGGACCGUCCCCUCGGUAAUGGCGAAUGGGACCCA [A16C C36A] , report the class its self-cleavage corresponds to.
lower range

Determine which band this variant sits in: GGCCGGCAUGGUCCCAGCCUCCUCGCUGGCGCCGGCUGGGCAACAUUCCGAGGGGACCGUCCCCUCGGUAAUGGCGAAAGGGACUCA [U79A C85U]
upper range

Please report the category associated with GGCCGGCCUGGUCCCAGCCUCCUCGCUGGCGCCGGCUGGGCAACAUUCCGAGGGGACCGUCCCCUCGGUAAUGGCGAAGGGGACCCA [A8C U79G] , nothing else.
middle range

More entries:
Please indicate the class for GGCCGGCAUGGUCCCAGCCUCCUCGCUGGCGCCGGCUGGGCACCAUUCCGAGGGGACCGUCCCCUCGGUAAUGGCGAAUGGAACCCA [A43C G82A] based on its self-cleavage.
lower range

Kindly identify the class of GGCCGGCAUGGUCCCAGCCUCAUCGCUGACGCCGGCUGGGCAACAUUCCGAGGGGACCGUCCCCUCGGUAAUGGCGAAUGGGACCCA [C22A G29A] .
lower range

Which bin should I file GGCCGGCAUGGUCCCAGCCUCCUCGCUGGCACCGGCUGGGCAACAUUCCGAGGGGACCGUCCCCUCGGUAUUGGCGAAUGGGACCCA [G31A A71U] under?
middle range

For this variant, which bin applies? GGCCGGCAUGGUCCCAGCCUCCUCGCUGGCGCCGGCUUGGCAACAUUCCGAGGGGACCGUCUCCUCGGUAAUGGCGAAUGGGACCCA [G38U C62U]
middle range

Please report the category associated with GGCCGGCAUGGUCCCAGCCUCCUCGCUGGCGCCGGCUGGGCAACAUUCCGAGGGGACCGUCCUCUCGGUAAUGGCGAAUGGGACACA [C63U C85A] , nothing else.
upper range

Which class holds GGCCGGCAUGGUCCCAGCCUCCUAGCUGGCGCCGGCUGGGCAACAUUUCGAGGGGACCGUCCCCUCGGUAAUGGCGAAUGGGACCCA [C24A C48U] ?
upper range
